Test system: Mus musculus
run.description: Toxicity in mouse assessed as increase in bleeding time at 30 uM/kg, po administered 60 mins prior to tail incision after 3 days relative to aspirin
Format: organism-based
assay.context: in vivo
measure.name: Activity (%)
One number for each entry, in %.

>  <smiles.text>
CNC(=O)c1cc2cc(C)c3ccccc3c2oc1=O

>  <Activity / %>
65

$$$$

// for each molecule in input: emit Activity
1. Cc1cc2cc(C(=O)N(C)C)c(=O)oc2c2ccccc12
2. Cc1ccc(NC(=O)c2cc3cc(/C=C/C(=O)c4ccc(C)cc4)c4ccccc4c3oc2=O)cc1
3. Cc1ccc(C(=O)/C=C/c2cc3cc(C(=O)NC4CCCCC4)c(=O)oc3c3ccccc23)cc1

Reply |
1. 100
2. 109
3. 109

###

System: Mus musculus
run.description: Toxicity in mouse assessed as increase in bleeding time at 30 uM/kg, po administered 60 mins prior to tail incision after 3 days relative to aspirin
Type: organism-based
assay.context: in vivo
measure.name: Activity

Check out these entries, answers already filled in.
>  <smiles.text>
Cc1cc2cc(C(=O)N3CCN(C)CC3)c(=O)oc2c2ccccc12

>  <subject.of.test>
Mus musculus

>  <Activity>
55%

$$$$
>  <smiles.text>
Cc1ccc(C(=O)/C=C/c2cc3cc(C(=O)N(C)C)c(=O)oc3c3ccccc23)cc1

>  <subject.of.test>
Mus musculus

>  <Activity>
82%

$$$$
>  <smiles.text>
Cc1ccc(C(=O)/C=C/c2cc3cc(C(=O)N4CCOCC4)c(=O)oc3c3ccccc23)cc1

>  <subject.of.test>
Mus musculus

>  <Activity>
55%

$$$$
>  <smiles.text>
Cc1ccc(C(=O)/C=C/c2cc3cc(C(=O)NCCCN4CCOCC4)c(=O)oc3c3ccccc23)cc1

>  <subject.of.test>
Mus musculus

>  <Activity>
45%

$$$$

Now consider a different molecule.
Given the molecule `CCNC(=O)c1cc2cc(C)c3ccccc3c2oc1=O` and test system Mus musculus, the measured Activity is 68%

###

Tested on: Mus musculus
run.description: Toxicity in mouse assessed as increase in bleeding time at 30 uM/kg, po administered 60 mins prior to tail incision after 3 days relative to aspirin
Type: organism-based
assay.context: in vivo
Please use t whenever Activity is not below 60%, and f whenever it is.

Field: example entries. Status: answers known.
>  <molecule>
CCCNC(=O)c1cc2cc(/C=C/C(=O)c3ccc(C)cc3)c3ccccc3c2oc1=O

>  <category.label>
t

$$$$
>  <molecule>
Cc1ccc(NC(=O)c2cc3cc(C)c4ccccc4c3oc2=O)cc1

>  <category.label>
t

$$$$
>  <molecule>
Cc1cc2cc(C(=O)N3CCCCC3)c(=O)oc2c2ccccc12

>  <category.label>
t

$$$$
>  <molecule>
CCCNC(=O)c1cc2cc(C)c3ccccc3c2oc1=O

>  <category.label>
f

$$$$
>  <molecule>
CC(=O)CC(c1ccccc1)c1c(O)c2ccccc2oc1=O (stereo unspecified)

>  <category.label>
f

$$$$

Ask | Threshold query (Activity >= 60%) on `CNC(=O)c1cc2cc(/C=C/C(=O)c3ccc(C)cc3)c3ccccc3c2oc1=O`
Reply | f

###

Please provide measured Activity for the entries that follow.
System: Mus musculus
run.description: Toxicity in mouse assessed as increase in bleeding time at 30 uM/kg, po administered 60 mins prior to tail incision after 1 hr relative to aspirin
Assay type: organism-based
assay.context: in vivo
Form field: result (number plus unit)

Check out these entries, answers already filled in.
>  <smiles.text>
Cc1cc2cc(C(=O)N3CCN(C)CC3)c(=O)oc2c2ccccc12

>  <Activity>
17%

$$$$
>  <smiles.text>
Cc1ccc(C(=O)/C=C/c2cc3cc(C(=O)N(C)C)c(=O)oc3c3ccccc23)cc1

>  <Activity>
59%

$$$$
>  <smiles.text>
Cc1cc2cc(C(=O)N3CCOCC3)c(=O)oc2c2ccccc12

>  <Activity>
33%

$$$$
>  <smiles.text>
Cc1ccc(NC(=O)c2cc3cc(C)c4ccccc4c3oc2=O)cc1

>  <Activity>
58%

$$$$

// for each compound in input: emit Activity
1. Cc1ccc(C(=O)/C=C/c2cc3cc(C(=O)NCCCN4CCOCC4)c(=O)oc3c3ccccc23)cc1
2. Cc1cc2cc(C(=O)N(C)C)c(=O)oc2c2ccccc12
3. Cc1ccc(C(=O)/C=C/c2cc3cc(C(=O)N4CCOCC4)c(=O)oc3c3ccccc23)cc1
4. Cc1ccc(C(=O)/C=C/c2cc3cc(C(=O)N4CCN(C)CC4)c(=O)oc3c3ccccc23)cc1
5. Cc1ccc(C(=O)/C=C/c2cc3cc(C(=O)NC4CCCCC4)c(=O)oc3c3ccccc23)cc1
6. CCCNC(=O)c1cc2cc(/C=C/C(=O)c3ccc(C)cc3)c3ccccc3c2oc1=O

Reply |
1: 25%; 2: 58%; 3: 17%; 4: 34%; 5: 84%; 6: 100%

// for each compound in input: emit Activity
1. Cc1cc2cc(C(=O)NC3CCCCC3)c(=O)oc2c2ccccc12
2. CCNC(=O)c1cc2cc(/C=C/C(=O)c3ccc(C)cc3)c3ccccc3c2oc1=O

Reply |
53%
33%

// for each compound in input: emit Activity
1. CNC(=O)c1cc2cc(C)c3ccccc3c2oc1=O
2. CCCNC(=O)c1cc2cc(C)c3ccccc3c2oc1=O
3. Cc1cc2cc(C(=O)N3CCCCC3)c(=O)oc2c2ccccc12
4. Cc1cc2cc(C(=O)NCCCN3CCOCC3)c(=O)oc2c2ccccc12
5. Cc1ccc(NC(=O)c2cc3cc(/C=C/C(=O)c4ccc(C)cc4)c4ccccc4c3oc2=O)cc1
6. Cc1ccc(C(=O)/C=C/c2cc3cc(C(=O)N4CCCCC4)c(=O)oc3c3ccccc23)cc1
7. CNC(=O)c1cc2cc(/C=C/C(=O)c3ccc(C)cc3)c3ccccc3c2oc1=O
8. CC(=O)Oc1ccccc1C(=O)O

Reply |
48%
17%
59%
50%
83%
25%
17%
100%

compound `CCNC(=O)c1cc2cc(C)c3ccccc3c2oc1=O` , Activity observed: 45%

###

Test system: Mus musculus
run.description: Toxicity in mouse assessed as increase in bleeding time at 30 uM/kg, po administered 60 mins prior to tail incision after 3 days relative to aspirin
Format: organism-based
assay.context: in vivo
API: label(entry) gives fulfilled if the entry's Activity is strictly smaller than 90%; on equality or larger values it gives not fulfilled.

>  <smiles.text>
Cc1ccc(C(=O)/C=C/c2cc3cc(C(=O)N4CCCCC4)c(=O)oc3c3ccccc23)cc1

>  <category.label>
fulfilled

$$$$
>  <smiles.text>
CCNC(=O)c1cc2cc(/C=C/C(=O)c3ccc(C)cc3)c3ccccc3c2oc1=O

>  <category.label>
not fulfilled

$$$$
>  <smiles.text>
Cc1ccc(C(=O)/C=C/c2cc3cc(C(=O)N4CCN(C)CC4)c(=O)oc3c3ccccc23)cc1

>  <category.label>
fulfilled

$$$$
>  <smiles.text>
Cc1cc2cc(C(=O)NC3CCCCC3)c(=O)oc2c2ccccc12

>  <category.label>
fulfilled

$$$$

Ask | Hello, I'm reviewing records and need to know if Activity of `Cc1cc2cc(C(=O)N3CCOCC3)c(=O)oc2c2ccccc12` is below 90%. Could you check?
Reply | not fulfilled

Hello, the source for this data is ChEMBL document CHEMBL1921700, in case you need it.
